assay: Measurement of fluorescence quantum yield (Rhodamine B in ethanol as reference); type: physicochemical; details: solvent Ethanol
PARAMETER: Φ2 (fluorescence quantum yield)

MOLECULE	ASSAY_VALUE
CCN1/C(=C/C=C/C(=C/C2=[N+](CC)c3ccccc3C2(C)C)N(CCO)CCO)C(C)(C)c2ccccc21 [Dye IIc]	0.013
CCN(CC)C(=C\C1=[N+](CC)c2ccccc2C1(C)C)/C=C/C=C1/N(CC)c2ccccc2C1(C)C [Dye IId]	0.009
CCN1/C(=C/C=C/C(N)=C/C2=[N+](CC)c3ccccc3C2(C)C)C(C)(C)c2ccccc21 [Dye IIa]	0.009
CCN1/C(=C/C=C/C(=C/C2=[N+](CC)c3ccccc3C2(C)C)NCc2ccccc2)C(C)(C)c2ccccc21 [Dye IIe]	0.017
CCN1/C(=C/C=C/C(=C/C2=[N+](CC)c3ccccc3C2(C)C)Nc2ccccc2)C(C)(C)c2ccccc21 [Dye IIg]	0.006

(a) CCN1/C(=C/C=C/C(=C/C2=[N+](CC)c3ccccc3C2(C)C)NCCO)C(C)(C)c2ccccc21 [Dye IIb]
(b) CCN1/C(=C/C=C/C(=C/C2=[N+](CC)c3ccccc3C2(C)C)N(Cc2ccccc2)Cc2ccccc2)C(C)(C)c2ccccc21 [Dye IIf]
Please choose the item with the lower Φ2 (fluorescence quantum yield) value from this pair: a and b Response format: the label of the selected entry.
b
(b: 0.009, a: 0.017)

====

test: Absorption and emission spectra of dyes in different solvents; format: physicochemical; conditions: solvent DMSO
PARAMETER: λbs2 (nm)

QUERY_SMILES	PARAMETER	UNIT_ABBREVIATION	ASSAY_VALUE
CCN1/C(=C/C=C/C(=C/C2=[N+](CC)c3ccccc3C2(C)C)NCCO)C(C)(C)c2ccccc21	λbs2	nm	436
CCN1/C(=C/C=C/C(=C/C2=[N+](CC)c3ccccc3C2(C)C)NCc2ccccc2)C(C)(C)c2ccccc21	λbs2	nm	433
CCN(CC)C(=C\C1=[N+](CC)c2ccccc2C1(C)C)/C=C/C=C1/N(CC)c2ccccc2C1(C)C	λbs2	nm	460
CCN1/C(=C/C=C/C(=C/C2=[N+](CC)c3ccccc3C2(C)C)N(Cc2ccccc2)Cc2ccccc2)C(C)(C)c2ccccc21	λbs2	nm	460
CCN1/C(=C/C=C/C(=C/C2=[N+](CC)c3ccccc3C2(C)C)Nc2ccccc2)C(C)(C)c2ccccc21	λbs2	nm	416
CCN1/C(=C/C=C/C(N)=C/C2=[N+](CC)c3ccccc3C2(C)C)C(C)(C)c2ccccc21	λbs2	nm	419
CCN1/C(=C/C=C/C(=C/C2=[N+](CC)c3ccccc3C2(C)C)N(CCO)CCO)C(C)(C)c2ccccc21	λbs2	nm	458

====

experiment: Absorption and emission spectra of dyes in different solvents; format: physicochemical; settings: solvent Methanol
PARAMETER: λabs1 (nm)

QUERY_SMILES	UNIT_ABBREVIATION	λabs1
CCN(CC)C(=C\C1=[N+](CC)c2ccccc2C1(C)C)/C=C/C=C1/N(CC)c2ccccc2C1(C)C	nm	513
CCN1/C(=C/C=C/C(=C/C2=[N+](CC)c3ccccc3C2(C)C)N(CCO)CCO)C(C)(C)c2ccccc21	nm	522
CCN1/C(=C/C=C/C(=C/C2=[N+](CC)c3ccccc3C2(C)C)N(Cc2ccccc2)Cc2ccccc2)C(C)(C)c2ccccc21	nm	527

====

experiment: Absorption and emission spectra of dyes in different solvents; type: physicochemical; parameters: scale not given here; conditions: solvent Water
PARAMETER: ε2 (molar extinction coefficient) (cm^−1M)

COMPOUND	PARAMETER	ASSAY_VALUE
CCN1/C(=C/C=C/C(=C/C2=[N+](CC)c3ccccc3C2(C)C)NCc2ccccc2)C(C)(C)c2ccccc21 [Dye IIe]	ε2 (molar extinction coefficient)	1.9
CCN1/C(=C/C=C/C(N)=C/C2=[N+](CC)c3ccccc3C2(C)C)C(C)(C)c2ccccc21 [Dye IIa]	ε2 (molar extinction coefficient)	1.7
CCN1/C(=C/C=C/C(=C/C2=[N+](CC)c3ccccc3C2(C)C)N(CCO)CCO)C(C)(C)c2ccccc21 [Dye IIc]	ε2 (molar extinction coefficient)	1.9
CCN(CC)C(=C\C1=[N+](CC)c2ccccc2C1(C)C)/C=C/C=C1/N(CC)c2ccccc2C1(C)C [Dye IId]	ε2 (molar extinction coefficient)	2.3
CCN1/C(=C/C=C/C(=C/C2=[N+](CC)c3ccccc3C2(C)C)NCCO)C(C)(C)c2ccccc21 [Dye IIb]	ε2 (molar extinction coefficient)	1.7
CCN1/C(=C/C=C/C(=C/C2=[N+](CC)c3ccccc3C2(C)C)Nc2ccccc2)C(C)(C)c2ccccc21 [Dye IIg]	ε2 (molar extinction coefficient)	2.2
CCN1/C(=C/C=C/C(=C/C2=[N+](CC)c3ccccc3C2(C)C)N(Cc2ccccc2)Cc2ccccc2)C(C)(C)c2ccccc21 [Dye IIf]	ε2 (molar extinction coefficient)	1.9

====

assay: Measurement of fluorescence quantum yield (Rhodamine B in ethanol as reference); assay type: physicochemical; conditions: solvent Ethanol
PARAMETER: Φ1 (fluorescence quantum yield)

COMPOUND	Φ1 (fluorescence quantum yield)
CCN1/C(=C/C=C/C(=C/C2=[N+](CC)c3ccccc3C2(C)C)N(CCO)CCO)C(C)(C)c2ccccc21 [Dye IIc]	0.014

(I) CCN1/C(=C/C=C/C(=C/C2=[N+](CC)c3ccccc3C2(C)C)N(Cc2ccccc2)Cc2ccccc2)C(C)(C)c2ccccc21 [Dye IIf]
(II) CCN1/C(=C/C=C/C(=C/C2=[N+](CC)c3ccccc3C2(C)C)NCc2ccccc2)C(C)(C)c2ccccc21 [Dye IIe]
Please state the entry with greater Φ1 (fluorescence quantum yield) among I and II . Pick one; state its label.
II
(II: 0.019, I: 0.010)

(A) CCN(CC)C(=C\C1=[N+](CC)c2ccccc2C1(C)C)/C=C/C=C1/N(CC)c2ccccc2C1(C)C [Dye IId]
(B) CCN1/C(=C/C=C/C(=C/C2=[N+](CC)c3ccccc3C2(C)C)NCCO)C(C)(C)c2ccccc21 [Dye IIb]
Name the one with the greater Φ1 (fluorescence quantum yield) value, either A or B as given. Please respond with the label that marks your chosen entry.
B
(B: 0.019, A: 0.009)

====

Test: Absorption and emission spectra of dyes in different solvents
Assay type: physicochemical
Set-up: scale not given here
Details: solvent Ethanol
Source text: In the present invention, compounds IIa to IIg were synthesized based on compound II, and their spectral properties were investigated. […]
PARAMETER: ε2 (molar extinction coefficient) (cm^−1M)

QUERY_SMILES	PARAMETER	UNIT_ABBREVIATION	ASSAY_VALUE
CCN1/C(=C/C=C/C(=C/C2=[N+](CC)c3ccccc3C2(C)C)Nc2ccccc2)C(C)(C)c2ccccc21	ε2 (molar extinction coefficient)	cm^−1M	2.0
CCN1/C(=C/C=C/C(=C/C2=[N+](CC)c3ccccc3C2(C)C)N(Cc2ccccc2)Cc2ccccc2)C(C)(C)c2ccccc21	ε2 (molar extinction coefficient)	cm^−1M	2.5
CCN1/C(=C/C=C/C(=C/C2=[N+](CC)c3ccccc3C2(C)C)NCCO)C(C)(C)c2ccccc21	ε2 (molar extinction coefficient)	cm^−1M	2.3
CCN1/C(=C/C=C/C(N)=C/C2=[N+](CC)c3ccccc3C2(C)C)C(C)(C)c2ccccc21	ε2 (molar extinction coefficient)	cm^−1M	2.0
CCN1/C(=C/C=C/C(=C/C2=[N+](CC)c3ccccc3C2(C)C)N(CCO)CCO)C(C)(C)c2ccccc21	ε2 (molar extinction coefficient)	cm^−1M	2.3
CCN(CC)C(=C\C1=[N+](CC)c2ccccc2C1(C)C)/C=C/C=C1/N(CC)c2ccccc2C1(C)C	ε2 (molar extinction coefficient)	cm^−1M	2.5
CCN1/C(=C/C=C/C(=C/C2=[N+](CC)c3ccccc3C2(C)C)NCc2ccccc2)C(C)(C)c2ccccc21	ε2 (molar extinction coefficient)	cm^−1M	2.3

====

test: Measurement of fluorescence quantum yield (Rhodamine B in ethanol as reference); format: physicochemical; details: solvent Methanol
PARAMETER: Φ1 (fluorescence quantum yield)

QUERY_SMILES	Φ1 (fluorescence quantum yield)
CCN1/C(=C/C=C/C(N)=C/C2=[N+](CC)c3ccccc3C2(C)C)C(C)(C)c2ccccc21	0.007
CCN1/C(=C/C=C/C(=C/C2=[N+](CC)c3ccccc3C2(C)C)Nc2ccccc2)C(C)(C)c2ccccc21	0.011
CCN1/C(=C/C=C/C(=C/C2=[N+](CC)c3ccccc3C2(C)C)NCc2ccccc2)C(C)(C)c2ccccc21	0.008
CCN1/C(=C/C=C/C(=C/C2=[N+](CC)c3ccccc3C2(C)C)NCCO)C(C)(C)c2ccccc21	0.009
CCN(CC)C(=C\C1=[N+](CC)c2ccccc2C1(C)C)/C=C/C=C1/N(CC)c2ccccc2C1(C)C	0.005
CCN1/C(=C/C=C/C(=C/C2=[N+](CC)c3ccccc3C2(C)C)N(Cc2ccccc2)Cc2ccccc2)C(C)(C)c2ccccc21	0.005
CCN1/C(=C/C=C/C(=C/C2=[N+](CC)c3ccccc3C2(C)C)N(CCO)CCO)C(C)(C)c2ccccc21	0.007
